The listing below reports pIC50 for molecules tested on human SMYD3 (Homo sapiens, UniProt Q9H7B4).
pIC50: −log10 of the molar value.
Measurement name: pIC50

1 = O=C(NC1CCN(c2ccccc2)C1=O)c1cc(C2CC2)on1 (stereo not drawn) [compound 28]
2 = CC(C)N1CCC(NC(=O)c2cc(C3CC3)on2)C1c1ccc(F)c(F)c1 (stereo not drawn) [compound 12]
stdin: Higher pIC50 between 1 and 2 ? When you have decided, please share the label of that item.
stdout: 2
(2: 4.23, 1: 4.03)

----------
Each record here notes measured pIC50.
- Target desc: SMYD2 (Homo sapiens, UniProt Q9NRG4)
- Construct: Full length SMYD2 (NP 064582.2) was cloned; His6 (N, cleaved yes); FLAG (N); made in house; host or cells: Sf9 insect cells
- Sequence (Q9NRG4 whole entry): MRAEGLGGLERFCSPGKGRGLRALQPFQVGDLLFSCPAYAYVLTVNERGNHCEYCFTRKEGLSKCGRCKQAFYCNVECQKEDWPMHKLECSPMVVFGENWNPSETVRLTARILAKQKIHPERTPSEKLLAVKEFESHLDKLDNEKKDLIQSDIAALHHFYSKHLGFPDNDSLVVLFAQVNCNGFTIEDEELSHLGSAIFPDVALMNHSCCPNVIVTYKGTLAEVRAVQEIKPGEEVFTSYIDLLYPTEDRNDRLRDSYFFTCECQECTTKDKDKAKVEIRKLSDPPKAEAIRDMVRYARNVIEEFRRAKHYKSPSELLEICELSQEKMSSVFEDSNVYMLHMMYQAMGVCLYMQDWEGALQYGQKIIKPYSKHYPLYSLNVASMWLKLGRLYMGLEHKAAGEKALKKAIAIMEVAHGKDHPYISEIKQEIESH
- Method description: SMYD2 Biochemical Assay (3H-SAM, biotinylated peptide substrate, Flashplate)
- Condition set: Table 1; average of n = 1 to n = 50; read-out: SMYD2 Biochem IC50
pIC50: −log10 of the molar value.

Please review the following examples before continuing.
- Molecule: "C[C@H]1C[C@H](NC(=O)c2cc(C3CC3)on2)C(=O)N1c1cnn(C)c1 (racemic) [compound 20]"
  Target desc: "SMYD2 (Homo sapiens, UniProt Q9NRG4)"
  pIC50: "< 4.30"
- Molecule: "O=C(N[C@@H]1CN(C2CC2)C[C@@H]1CO)c1cc(C2CC2)on1 (racemic) [Cpd. No. 48]"
  Target desc: "SMYD2 (Homo sapiens, UniProt Q9NRG4)"
  pIC50: 5.07
- Molecule: "C[C@H]1CN(C2CC2)C[C@H]1NC(=O)c1cc(C2CCCC2)on1 (racemic) [compound 54]"
  Target desc: "SMYD2 (Homo sapiens, UniProt Q9NRG4)"
  pIC50: "< 4.30"
- Molecule: "CC1CC(NC(=O)c2cc(C3CC3)on2)CN1C1CC1 (centres unmarked) [compound 22]"
  Target desc: "SMYD2 (Homo sapiens, UniProt Q9NRG4)"
  pIC50: "< 4.30"

stdin: Find the measured pIC50: item CN1CCC(NC(=O)c2cc(C3CC3)on2)C1c1ccc(F)cc1 (centres unmarked) [compound 13] , target or system SMYD2 (Homo sapiens, UniProt Q9NRG4).
stdout: < 4.30

----------
Each record here notes measured IC50.
- Target desc: SMYD2 (Homo sapiens, UniProt Q9NRG4)
- Construct: Full length SMYD2 (NP 064582.2) was cloned; His6 (N, cleaved yes); FLAG (N); made in house; host or cells: Sf9 insect cells
- Method description: SMYD2 Biochemical Assay (3H-SAM, biotinylated peptide substrate, Flashplate)
- Condition set: IC50 values are an average of n = 1 to n = 50; read-out: SMYD2 Biochem IC50 (μM)*
- From the text: S-adenosylmethionine (SAM), S-adenosylhomocysteine (SAH), bicine, Tween20, dimethylsulfoxide (DMSO), bovine skin gelatin (BSG), and Tris(2-carboxyethyl)phosphine hydrochloride (TCEP) were purchased from Sigma-Aldrich at the highest level of purity possible. ^3H-SAM was purchase from American Radiolabeled Chemicals with a specific activity of 80 Ci/mmol. 384-well streptavidin Flashplates were purchased from PerkinElmer. […]

Please review the following examples before continuing.
- Compound: "CC(C)N1C[C@H](NC(=O)c2cc(C3CC3)on2)[C@@H](C(C)(C)C)C1 (racemic)"
  Val: "> 50 µM"
- Compound: "CC(C)N1C[C@@H](NC(=O)c2cc(C3CC3)on2)[C@](C)(O)C1"
  Val: "6.8 µM"
- Compound: "C[C@H]1CN(Cc2c(Br)cncc2Br)C[C@H]1NC(=O)c1cc(C2CC2)on1 (racemic)"
  Val: "> 50 µM"
- Compound: "CC(Cc1ccc2c(c1)OCO2)CN1C[C@H](C)[C@H](NC(=O)c2cc(C3CC3)on2)C1 (relative stereo)"
  Val: "9.31 µM"

stdin: Need IC50, item CC(C)CCN1C[C@H](C)[C@H](NC(=O)c2cc(C3CC3)on2)C1 (racemic)
stdout: 1.62 µM

----------
- Target desc: SMYD2 (Homo sapiens, UniProt Q9NRG4)
- Construct: Full length SMYD2 (NP 064582.2) was cloned; His6 (N, cleaved yes); FLAG (N); made in house; host or cells: Sf9 insect cells
- Method description: SMYD2 Biochemical Assay (3H-SAM, biotinylated peptide substrate, Flashplate)
- Condition set: IC50 values are an average of n = 1 to n = 50; read-out: SMYD2 Biochem IC50 (μM)*
Measurement name: IC50 (µM)

Please review the following examples before continuing.
- Compound: "C[C@H]1CN(CC2CCC2)C[C@H]1NC(=O)c1cc(C2CC2)on1 (racemic)"
  Readout units: "µM"
  IC50: 1.63
- Compound: "C[C@H]1CN(Cc2cc(Cl)cnc2Cl)C[C@H]1NC(=O)c1cc(C2CC2)on1 (racemic)"
  Readout units: "µM"
  IC50: 36.1
- Compound: "C[C@H]1CN(CCC2CCNCC2)C[C@H]1NC(=O)c1cc(C2CC2)on1 (racemic)"
  Readout units: "µM"
  IC50: 10.6
- Compound: "CC(C)N1C[C@@H](NC(=O)c2cc(C3CC3)on2)[C@@](C)(O)C1 (racemic)"
  Readout units: "µM"
  IC50: 24.8
- Compound: "C[C@H]1CN(Cc2c[nH]cn2)C[C@H]1NC(=O)c1cc(C2CC2)on1 (racemic)"
  Readout units: "µM"
  IC50: 2.65

P = Cc1cc(CN2C[C@H](C)[C@H](NC(=O)c3cc(C4CC4)on3)C2)oc1C (racemic)
Q = C[C@H]1CN(Cc2cccc3c2OCO3)C[C@H]1NC(=O)c1cc(C2CC2)on1 (racemic)
R = CC[C@H]1CN(C(C)C)C[C@@H]1NC(=O)c1cc(C2CC2)on1 (racemic)
S = CC(C)N1CC(CNC(=O)c2ccccc2)C(NC(=O)c2cc(C3CC3)on2)C1 (stereo not drawn)
T = C[C@H]1CN(Cc2ccsc2)C[C@H]1NC(=O)c1cc(C2CC2)on1 (racemic)
stdin: List from greatest to least IC50. The reply should contain the labels ordered as requested.
stdout: R, S, P, Q, T

----------
- Target desc: SMYD2 (Homo sapiens, UniProt Q9NRG4)
- Construct: Full length SMYD2 (NP 064582.2) was cloned; His6 (N, cleaved yes); FLAG (N); made in house; host or cells: Sf9 insect cells
- Method description: SMYD2 Biochemical Assay (3H-SAM, biotinylated peptide substrate, Flashplate)
- Condition set: IC50 values are an average of n = 1 to n = 50; read-out: SMYD2 Biochem IC50 (μM)*
Measurement name: IC50 (µM)

A = CC(C)N1C[C@H](C)[C@H](NC(=O)c2cc(C(F)F)on2)C1 (racemic)
B = C[C@H]1CN(CC2CCCOC2)C[C@H]1NC(=O)c1cc(C2CC2)on1 (mixture of isomers)
C = C[C@H]1CN(Cc2ccc(N3CCCC3)cc2)C[C@H]1NC(=O)c1cc(C2CC2)on1 (racemic)
D = C[C@@H]1CN(Cc2ccc(N(C)C)cc2)C[C@H]1NC(=O)c1cc(C2CC2)on1 (racemic)
stdin: With regard to IC50, arrange the entries in ascending order, please. The reply should contain the labels ordered as requested.
stdout: C, B, A, D
(C: 3.32 µM, B: 4.92 µM, A: 9.59 µM, D: 37 µM)

----------
Target chain: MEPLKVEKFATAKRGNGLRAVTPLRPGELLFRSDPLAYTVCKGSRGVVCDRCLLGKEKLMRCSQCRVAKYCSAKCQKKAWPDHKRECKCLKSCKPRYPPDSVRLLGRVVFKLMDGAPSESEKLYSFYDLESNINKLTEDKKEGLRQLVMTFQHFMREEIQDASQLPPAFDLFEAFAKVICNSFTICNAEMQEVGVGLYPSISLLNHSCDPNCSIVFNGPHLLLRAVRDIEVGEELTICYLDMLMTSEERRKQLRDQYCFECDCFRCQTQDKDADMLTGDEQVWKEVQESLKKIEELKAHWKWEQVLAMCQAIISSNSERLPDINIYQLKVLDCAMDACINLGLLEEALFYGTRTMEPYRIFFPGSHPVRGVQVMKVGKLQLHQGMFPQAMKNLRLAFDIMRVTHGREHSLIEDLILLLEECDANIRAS
pIC50: −log10 of the molar value.
Measurement name: pIC50

Please review the following examples before continuing.
- Compound: "CN1CCC(NC(=O)c2cc(C3CC3)on2)C1c1ccc(F)cc1 (stereo not drawn) [compound 13]"
  pIC50: 4.29
- Compound: "N[C@H]1CC[C@H](C(=O)N2CC[C@H](NC(=O)c3cc(C4CC4)on3)C2)CC1 [compound 33]"
  pIC50: 5.49
- Compound: "CN1CCC(NC(=O)c2cc(C3CC3)on2)C1c1ccccc1 (stereo not drawn) [compound 5]"
  pIC50: 4.26

1 = O=C(N[C@@H]1CCNC1)c1cc(C2CC2)on1 [compound 4]
2 = CC1CC(NC(=O)c2cc(C3CC3)on2)CN1C1CC1 (stereo not drawn) [compound 22]
3 = O=C(NC1CCN(C2CC2)C1c1ccc(F)c(F)c1)c1cc(C2CC2)on1 (stereo not drawn) [compound 8]
stdin: List from greatest to least pIC50. The reply should contain the labels ordered as requested.
stdout: 3, 2, 1
(3: 4.91, 2: 4.33, 1: 4.08)
